// values below are reported T/C
# Tested on: BDF1 mice, P388 leukemia ip, median survival T/C
# Test: NCI In Vivo Anticancer Drug Screen. Data for tumor model P388 Leukemia (intraperitoneal) in B6D2F1 (BDF1) mice
# Test conditions: endpoint: median survival time; dose: 400.0 mg/kg/injection; schedule: Q04DX003 (ip); vehicle: saline with Tween-80; higher = longer survival
Inconclusive results and toxic doses are left out.

These recorded examples may help you get a feel for the data.
# Compound, Test readout, Result
measured = [
    ("CCCCNC(=S)Nc1sc(C)c(C)c1C(=O)OCC", "T/C", "99 % of control"),
    ("CSc1nc2c(N)nc(N)nc2nc1C", "T/C", "108 % of control"),
    ("CC(Br)C(=O)NC(C)C(=O)O (stereo not drawn)", "T/C", "118 % of control"),
    ("O=C(COc1ccc([N+](=O)[O-])cc1)Nc1cccnc1", "T/C", "100 % of control"),
    ("CCOC(=O)C(C#N)N=Nc1ccccc1 (stereo not drawn)", "T/C", "90 % of control"),
]

Prompt: Recall the recorded T/C for Cc1c(C)c(Br)c(C)c(-c2c(O)c(Br)c(-c3c(C)c(C)c(C)c(Br)c3C)c(O)c2Br)c1C with BDF1 mice, P388 leukemia ip, median survival T/C and state it.
Completion: 90 % of control

Prompt: Notebook entry, BDF1 mice, P388 leukemia ip, median survival T/C assay: T/C of COC(C(OC)N1CCOCC1)N1CCOCC1 (stereo not drawn) = ?
Completion: 100 % of control

Prompt: Record lookup: for BDF1 mice, P388 leukemia ip, median survival T/C, what T/C belongs to CC(=O)OCc1cc2ccccc2nc1C ?
Completion: 100 % of control

Prompt: Form entry - test system: BDF1 mice, P388 leukemia ip, median survival T/C; read-out: T/C; compound: CC1(c2ccc(Cl)s2)NC(=O)NC1=O (stereo not drawn)
Completion: 98 % of control

Prompt: Provide value of T/C for this record tested with BDF1 mice, P388 leukemia ip, median survival T/C: NC(=S)c1ccncc1
Completion: 90 % of control

* * *

# Tested on: BDF1 mice, P388 leukemia ip, median survival T/C
# Test: NCI In Vivo Anticancer Drug Screen. Data for tumor model P388 Leukemia (intraperitoneal) in B6D2F1 (BDF1) mice
# Test conditions: endpoint: median survival time; dose: 25.0 mg/kg/injection; schedule: Q04DX003 (ip); vehicle: water; higher = longer survival
Toxic doses and inconclusive results are not listed.
Test readout: T/C

Prompt: GET /values?readout=T/C&item= Cc1c[n+]([O-])ccc1Br
Completion: 112 % of control

Prompt: // lookup T/C for CN(C(N)=O)c1c(O)nc(N)[nH]c1=O
Completion: 106 % of control

Prompt: Request the reported T/C associated with C=CCCC(=O)OC(C)(C)C
Completion: 106 % of control

Prompt: Quick one: T/C of O=C(CCNC(=O)OCc1ccccc1)NC(CSCc1ccccc1)C(=O)O (stereo unspecified) ?
Completion: 118 % of control

Prompt: // returns reported T/C for input COC(=O)C(CC(C)C)NC(=O)C(Cc1ccc(Oc2ccc([N+](=O)[O-])cc2[N+](=O)[O-])cc1)NC=O (stereo unspecified)
Completion: 95 % of control

Prompt: Could you share which T/C value was measured for COc1ccc(C2C=C(c3ccc4c(c3)OCO4)Oc3c2c(=O)oc2ccccc32)cc1OC (stereo unspecified) ?
Completion: 94 % of control

* * *

# Tested on: BDF1 mice, P388 leukemia ip, median survival T/C
# Test: NCI In Vivo Anticancer Drug Screen. Data for tumor model P388 Leukemia (intraperitoneal) in B6D2F1 (BDF1) mice
# Test conditions: endpoint: median survival time; dose: 100.0 mg/kg/injection; schedule: Q04DX003 (ip); vehicle: saline with Tween-80
Inconclusive results and toxic doses are left out. Rule for the calls: active = survival T/C of 150% or more; inactive = T/C below 125% in these data.
Outcome field: choose from Yes (active), No (inactive)

Prompt: Would you mind telling me which call this test gave O=C1C=C(c2ccccc2)C(c2ccccc2)C(c2ccccc2)C1 (stereo not drawn) ?
Completion: No

Prompt: Outcome? N#CC1C(=O)NC(=O)C(C#N)C12CCCCC2 (stereo not drawn)
Completion: No

Prompt: What did the test return for COc1cc(/C=N/N2CCCCC2)cc(OC)c1OC ?
Completion: No

Prompt: Hello, I am checking results. What call was entered for CC1=CC=CC(=O)C1(C)C(Cl)Cl (stereo not drawn) ?
Completion: No

Prompt: I would be grateful if you could indicate the recorded call for COC(C(OC)N1CCOCC1)N1CCOCC1 (stereo not drawn) .
Completion: No

Prompt: What outcome does the record of this test show for CCCCNC(=O)Nc1ccc(N(CC)CC)cc1 ?
Completion: No

Prompt: Please indicate how the test categorized CCOC(=O)CCN(CCC(=O)OCC)C(C)C .
Completion: No

* * *

# System: BDF1 mice, P388 leukemia ip, median survival T/C
# Test: NCI In Vivo Anticancer Drug Screen. Data for tumor model P388 Leukemia (intraperitoneal) in B6D2F1 (BDF1) mice
# Test conditions: endpoint: median survival time; dose: 12.5 mg/kg/injection; schedule: Q04DX003 (ip); vehicle: saline with Tween-80
Inconclusive results and toxic doses are left out. How the source made its calls: active means survival T/C of 150% or more; inactive means T/C below 125% in these data.
Parameter call: string, one of YES = active, NO = inactive

# example entries with known answers
# Compound, Label class
measured = [
    ("COc1ccc(NC(=O)N(CCCl)N=O)cc1OC", "YES"),
    ("COc1ccc(C(=O)C=C(C(F)(F)F)C(F)(F)F)cc1", "NO"),
    ("Cc1nc2ccccc2nc1CBr", "NO"),
    ("COC(=O)C1CCN(Cc2c[nH]c3ccccc23)CC1", "NO"),
    ("N#Cc1nc2nc(C(F)(F)F)[nH]c2nc1C#N", "NO"),
]

Prompt: Which result was noted for this compound in the test: c1ccc(CC(Cc2ccccc2)NC2=NCCO2)cc1
Completion: NO

Prompt: Test call, this compound: CC(/C=C/C1(C)C(C)CCC(=O)C1C)=C\Cc1c(O)c(Cl)c(C)c(C=O)c1O (stereo unspecified)
Completion: NO

Prompt: In this assay, the call recorded for O=NN(CCCl)C(=O)Nc1c[nH]c(=O)[nH]c1=O was what?
Completion: YES

Prompt: Fill in: this test's call for CCN(CC)Cc1nc2nc(Cl)c(Cl)nc2[nH]1 is ___
Completion: NO

Prompt: // outcome(item) with item = CC1CCC(NC2=NCCO2)C(C)C1 (stereo unspecified)
Completion: NO

Prompt: Identify the outcome logged in this assay for the compound shown: CC1(C)N=C(N)N=C(N)N1c1ccc(CCCCc2cccc(S(=O)(=O)F)c2)c(Cl)c1
Completion: NO

* * *

# Test system: BDF1 mice, P388 leukemia ip, median survival T/C
# Test: NCI In Vivo Anticancer Drug Screen. Data for tumor model P388 Leukemia (intraperitoneal) in B6D2F1 (BDF1) mice
# Test conditions: endpoint: median survival time; dose: 50.0 mg/kg/injection; schedule: Q01DX009 (ip); vehicle: saline with Tween-80; higher = longer survival
Inconclusive results and toxic doses are left out.
Test readout: T/C

# Compound, T/C
rows = [
    ("CCOP(=O)(O)OCC.[Al]", "100 % of control"),
]

Prompt: T/C of Cc1ccc(Nc2c([N+](=O)[O-])c(=O)n(C)c(=O)n2C)cc1C on BDF1 mice, P388 leukemia ip, median survival T/C?
Completion: 103 % of control

Prompt: What is its T/C for BDF1 mice, P388 leukemia ip, median survival T/C? Entry: Clc1ccc(-c2ncc3cnccn23)cc1Cl
Completion: 100 % of control

Prompt: Item: CCSc1ncnc2c1ncn2CN1CCOCC1 Test system: BDF1 mice, P388 leukemia ip, median survival T/C Read-out: T/C Value: ?
Completion: 95 % of control

Prompt: Request - read-out T/C | tested on BDF1 mice, P388 leukemia ip, median survival T/C | compound Cc1c(C#N)c2n(c1C)CCCC(=O)N2
Completion: 109 % of control

Prompt: Record CC(C)CNC(=O)C12CC3CC(CC(C3)C1)C2 : what is its T/C with BDF1 mice, P388 leukemia ip, median survival T/C?
Completion: 104 % of control

Prompt: Enter reported T/C observed with BDF1 mice, P388 leukemia ip, median survival T/C for O=C(O)Cc1nc(Cl)ccc1Cl
Completion: 106 % of control

Prompt: Requested read-out T/C, target or system BDF1 mice, P388 leukemia ip, median survival T/C, entry CC(C)CCNc1ncnc2[nH]ncc12
Completion: 90 % of control

Prompt: Query the reported T/C for BDF1 mice, P388 leukemia ip, median survival T/C; item: NC(=S)N/N=C\c1nccc2c(N)cccc12
Completion: 91 % of control

Prompt: Please state recorded T/C (tested on BDF1 mice, P388 leukemia ip, median survival T/C) of CCCCCCC(N)C(C)O (centres undefined)
Completion: 101 % of control

Prompt: Form entry - test system: BDF1 mice, P388 leukemia ip, median survival T/C; read-out: T/C; compound: CC(C)(O)C(NC(N)=O)c1ccccc1 (centres undefined)
Completion: 104 % of control

Prompt: Query for BDF1 mice, P388 leukemia ip, median survival T/C: what T/C does the record show for O=C(NC1CCOC1=O)OCc1ccccc1 (centres undefined) ?
Completion: 100 % of control

Prompt: Lab request: please report T/C under test system BDF1 mice, P388 leukemia ip, median survival T/C for CCCN(CCC)CC(O)c1cc2c(Cl)cc(Cl)cc2c2cc(C(F)(F)F)ccc12 (centres undefined)
Completion: 100 % of control

Prompt: Find T/C (BDF1 mice, P388 leukemia ip, median survival T/C) for the entry CCSC(=O)CC
Completion: 95 % of control
